A collection of compounds and their measured IC50
Test target: Mineralocorticoid receptor (Homo sapiens)
Sequence (P08235 whole entry): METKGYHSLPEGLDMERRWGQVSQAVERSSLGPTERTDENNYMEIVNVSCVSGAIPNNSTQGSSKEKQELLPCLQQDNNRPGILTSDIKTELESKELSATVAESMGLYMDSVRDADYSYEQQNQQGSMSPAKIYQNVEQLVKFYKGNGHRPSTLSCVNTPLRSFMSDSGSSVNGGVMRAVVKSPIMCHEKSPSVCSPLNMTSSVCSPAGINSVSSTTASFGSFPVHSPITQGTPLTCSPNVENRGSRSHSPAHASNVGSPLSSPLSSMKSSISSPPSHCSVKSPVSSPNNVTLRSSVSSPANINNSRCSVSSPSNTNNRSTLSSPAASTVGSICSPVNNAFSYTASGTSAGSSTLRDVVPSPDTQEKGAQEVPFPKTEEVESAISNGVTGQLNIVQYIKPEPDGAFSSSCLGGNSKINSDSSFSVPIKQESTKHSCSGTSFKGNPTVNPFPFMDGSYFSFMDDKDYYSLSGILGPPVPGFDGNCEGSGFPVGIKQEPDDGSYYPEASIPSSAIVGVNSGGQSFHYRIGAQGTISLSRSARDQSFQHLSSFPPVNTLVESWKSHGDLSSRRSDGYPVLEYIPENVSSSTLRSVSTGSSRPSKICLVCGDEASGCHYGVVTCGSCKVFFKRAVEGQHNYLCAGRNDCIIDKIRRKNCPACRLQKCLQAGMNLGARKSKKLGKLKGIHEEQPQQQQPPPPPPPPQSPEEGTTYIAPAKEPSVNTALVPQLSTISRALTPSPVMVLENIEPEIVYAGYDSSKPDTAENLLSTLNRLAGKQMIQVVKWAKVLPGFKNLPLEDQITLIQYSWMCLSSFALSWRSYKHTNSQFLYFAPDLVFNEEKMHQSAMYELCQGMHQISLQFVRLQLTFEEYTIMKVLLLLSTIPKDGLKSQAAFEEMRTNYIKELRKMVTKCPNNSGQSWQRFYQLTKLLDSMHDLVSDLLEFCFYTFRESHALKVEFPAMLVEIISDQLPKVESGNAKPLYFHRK
Procedure details: Antagonistic activity was determined in Human mineralocorticoid receptor(hMR) of CV-1 cells in cotransfection assay.
Reply with just the number (in nM).

Below are worked cases with known answers.
Task: Need IC50, item CC1=CC(C)(C)Nc2ccc3c(c21)C(c1ccc(C)cc1)Oc1ccccc1-3 (centres undefined)
Output: 1590

Task: Need IC50, item CC(=O)O[C@]1(C(C)=O)CC[C@H]2[C@@H]3C[C@H](C)C4=CC(=O)CC[C@]4(C)[C@H]3CC[C@@]21C [MEDROXYPROGESTERONE ACETATE]
Output: 1200

From here, focus on the item given below.
Task: Need IC50, item CC1=CC(C)(C)Nc2ccc3c(c21)C(c1ccc(Cl)c(F)c1)Oc1ccccc1-3 (centres undefined)
Output: 1360

* * *

Test target: Progesterone receptor (Homo sapiens) (UniProt P06401)
Procedure details: Human progesterone receptor (hPR) antagonist efficacy was determined as a function (%) of maximal inhibition of progesterone at EC50 value.
Type: functional
A collection of compounds and their measured Efficacy

Task: Need Efficacy, item CC1=CC(C)(C)Nc2ccc3c(c21)C(c1cc(Cl)cc(Cl)c1)Oc1ccccc1-3 (stereo not drawn)
Output: < 20%

Task: Need Efficacy, item CC1=CC(C)(C)Nc2ccc3c(c21)C(c1ccc(Cl)c(C)c1)Oc1ccccc1-3 (stereo not drawn)
Output: < 20%

Task: Need Efficacy, item CC1=CC(C)(C)Nc2ccc3c(c21)C(c1ccc(Cl)c(F)c1)Oc1ccccc1-3 (stereo not drawn)
Output: < 20%

* * *

Test target: UniProt:P06401
Procedure details: Agonist efficacy for human progesterone receptor (hPR) was compared to that of progesterone (100%)
Assay type: functional
Measured attribute: Efficacy (%)
Reply with just the number (in %).

Task: Need Efficacy, item CC1=CC(C)(C)Nc2ccc3c(c21)C(c1ccc(Br)cc1)Oc1ccccc1-3 (centres undefined)
Output: 59

From here, focus on the item given below.
Task: Need Efficacy, item CC1=CC(C)(C)Nc2ccc3c(c21)C(c1cc(C)cc(Br)c1)Oc1ccccc1-3 (centres undefined)
Output: 65

* * *

Test target: Estrogen receptor (Homo sapiens, UniProt Q92731+P03372)
Procedure details: Antagonistic activity was determined in Human estrogen receptor(hER) of CV-1 cells in cotransfection assay.
Assay type: functional, cell-based
Measured attribute: IC50 (nM)
Reply with just the number (in nM).

Below are worked cases with known answers.
Task: Need IC50, item CC1=CC(C)(C)Nc2ccc3c(c21)C(c1ccc(Cl)c(C)c1)Oc1ccccc1-3 (stereo not given)
Output: 1220

Task: Need IC50, item CC1=CC(C)(C)Nc2ccc3c(c21)C(c1cccc(C(F)(F)F)c1)Oc1ccccc1-3 (stereo not given)
Output: 1537

From here, focus on the item given below.
Task: Need IC50, item CC1=CC(C)(C)Nc2ccc3c(c21)C(c1ccc(Cl)c(F)c1)Oc1ccccc1-3 (stereo not given)
Output: 1449

* * *

Test target: Progesterone receptor (Homo sapiens, UniProt P06401)
Sequence (P06401 whole entry): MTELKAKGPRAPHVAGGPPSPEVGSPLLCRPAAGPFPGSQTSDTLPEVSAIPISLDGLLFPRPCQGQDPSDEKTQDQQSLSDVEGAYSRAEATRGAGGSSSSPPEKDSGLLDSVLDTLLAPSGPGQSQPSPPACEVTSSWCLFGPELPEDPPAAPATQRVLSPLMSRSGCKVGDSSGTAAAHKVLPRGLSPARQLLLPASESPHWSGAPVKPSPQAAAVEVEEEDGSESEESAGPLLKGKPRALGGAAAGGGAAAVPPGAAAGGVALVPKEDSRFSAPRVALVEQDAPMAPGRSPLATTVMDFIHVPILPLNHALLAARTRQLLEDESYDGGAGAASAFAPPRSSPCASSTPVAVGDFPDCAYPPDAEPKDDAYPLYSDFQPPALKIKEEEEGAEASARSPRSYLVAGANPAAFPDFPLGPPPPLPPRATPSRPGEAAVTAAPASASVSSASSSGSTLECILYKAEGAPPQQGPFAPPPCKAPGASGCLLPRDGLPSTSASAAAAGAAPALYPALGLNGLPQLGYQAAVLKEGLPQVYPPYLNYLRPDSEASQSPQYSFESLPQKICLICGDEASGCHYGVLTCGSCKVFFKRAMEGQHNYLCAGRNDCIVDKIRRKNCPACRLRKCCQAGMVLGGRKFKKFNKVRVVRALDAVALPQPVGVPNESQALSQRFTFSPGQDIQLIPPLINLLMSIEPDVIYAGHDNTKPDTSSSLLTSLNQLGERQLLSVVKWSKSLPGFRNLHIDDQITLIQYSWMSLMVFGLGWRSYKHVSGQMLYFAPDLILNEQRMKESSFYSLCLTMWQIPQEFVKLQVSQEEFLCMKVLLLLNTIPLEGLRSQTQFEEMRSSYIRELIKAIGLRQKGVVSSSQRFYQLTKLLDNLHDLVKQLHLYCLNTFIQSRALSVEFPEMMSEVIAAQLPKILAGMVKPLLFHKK
Procedure details: Agonistic activity to the human progesterone receptor (hPR)assayed in CV-1 cells in cotransfection assay.
A collection of molecules and their measured pEC50
# reply with the number alone; pEC50 is -log10 of concentration in mol/L

Below are worked cases with known answers.
Task: Need pEC50, item CC1=CC(C)(C)Nc2ccc3c(c21)C(c1ccc(C)cc1)Oc1ccccc1-3 (configuration not stated)
Output: 7.43

Task: Need pEC50, item CC1=CC(C)(C)Nc2ccc3c(c21)C(c1cccc(Br)n1)Oc1ccccc1-3 (configuration not stated)
Output: 5.77

Task: Need pEC50, item CC1=CC(C)(C)Nc2ccc3c(c21)C(c1ccc(Cl)c(C)c1)Oc1ccccc1-3 (configuration not stated)
Output: 7.85

Task: Need pEC50, item CC1=CC(C)(C)Nc2ccc3c(c21)C(c1cc(F)cc(Br)c1)Oc1ccccc1-3 (configuration not stated)
Output: 7.57

Task: Need pEC50, item CC1=CC(C)(C)Nc2ccc3c(c21)C(c1ccc(F)cc1)Oc1ccccc1-3 (configuration not stated)
Output: 8.10

Task: Need pEC50, item CC1=CC(C)(C)Nc2ccc3c(c21)C(c1ccccc1)Oc1ccccc1-3 (configuration not stated)
Output: 6.81

From here, focus on the item given below.
Task: Need pEC50, item CC1=CC(C)(C)Nc2ccc3c(c21)C(c1cccc(Br)c1)Oc1ccccc1-3 (configuration not stated)
Output: 8.10
